Species: Rattus norvegicus
Experiment: Open TG-GATES - Regimen: Daily Repeat
Assay type: toxicity, organism-based, Sprague-Dawley
Parameters: regimen Daily Repeat, gender Male, age 6 weeks
Conditions: in vivo, po, 10 mg/kg, 72 h, tissue Blood, route gavage, dose level Low, time 3 day
Here the recorded Ret is given for each entry.
Write the value in % as a bare number.

- compound: "CN(C)CCN(Cc1cccs1)c1ccccn1"
  unit_of_measure: "%"
  endpoint_value: 7
- compound: "CC(C)OC(=O)C(C)(C)Oc1ccc(C(=O)c2ccc(Cl)cc2)cc1 [FENOFIBRATE]"
  unit_of_measure: "%"
  endpoint_value: 7.2
- compound: "CN(C)CCCN1c2ccccc2CCc2ccccc21"
  unit_of_measure: "%"
  endpoint_value: 5.6

Quick one: Ret of CC1=C(/C=C/C(C)=C/C=C/C(C)=C/CO)C(C)(C)CCC1 ?
6.2

###

Species: Rattus norvegicus
Experiment: Open TG-GATES - Regimen: Single
Format: toxicity, organism-based, Sprague-Dawley
Parameters: regimen Single, gender Male, age 6 weeks
Conditions: in vivo, po, 300 mg/kg, 3 h, tissue Liver, route gavage, dose level Middle
Here the recorded LIVER is given for each entry.
In your response, the unit should come after the numeric value.

Check out these entries, answers already filled in.
- compound: "COc1ccc2[nH]c([S+]([O-])Cc3ncc(C)c(OC)c3C)nc2c1 (centres undefined) [OMEPRAZOLE]"
  LIVER: "9.8 g"
- compound: "COC1=CC(=O)C[C@@H](C)[C@]12Oc1c(Cl)c(OC)cc(OC)c1C2=O [GRISEOFULVIN]"
  LIVER: "9.7 g"
- compound: "NC(N)=Nc1nc(CSCCC(N)=NS(N)(=O)=O)cs1 [FAMOTIDINE]"
  LIVER: "10.1 g"

Pending compound:
Quick one: LIVER of CCOC(=O)CCC(=O)O[C@H]1[C@H](O[C@@H]2[C@@H](C)[C@H](O[C@H]3C[C@@](C)(OC)[C@@H](O)[C@H](C)O3)[C@@H](C)C(=O)O[C@H](CC)[C@@](C)(O)[C@H](O)[C@@H](C)C(=O)[C@H](C)C[C@@]2(C)O)O[C@H](C)C[C@@H]1N(C)C [ERYTHROMYCIN ETHYLSUCCINATE] ?
10 g

###

Here the recorded MCHC is given for each entry.
Species: Rattus norvegicus
Experiment: Open TG-GATES - Regimen: Daily Repeat
Type: toxicity, organism-based, Sprague-Dawley
Set-up: regimen Daily Repeat, gender Male, age 6 weeks
Settings: in vivo, po, 300 mg/kg, 72 h, tissue Blood, route gavage, dose level Middle, time 3 day
Write the value in % as a bare number.

- molecule: "NC(N)=Nc1nc(CSCCC(N)=NS(N)(=O)=O)cs1 [FAMOTIDINE]"
  endpoint_value: 36.3
- molecule: "COc1ccc2[nH]c([S+]([O-])Cc3ncc(C)c(OC)c3C)nc2c1 (stereo not given) [OMEPRAZOLE]"
  endpoint_value: 34.3
- molecule: "COC1=CC(=O)C[C@@H](C)[C@]12Oc1c(Cl)c(OC)cc(OC)c1C2=O [GRISEOFULVIN]"
  endpoint_value: 33.5
- molecule: "CCOc1ccc(NC(=O)CC(C)O)cc1 (stereo not given) [BUCETIN]"
  endpoint_value: 33.4

Pending molecule:
Quick one: MCHC of CCOC(=O)CCC(=O)O[C@H]1[C@H](O[C@@H]2[C@@H](C)[C@H](O[C@H]3C[C@@](C)(OC)[C@@H](O)[C@H](C)O3)[C@@H](C)C(=O)O[C@H](CC)[C@@](C)(O)[C@H](O)[C@@H](C)C(=O)[C@H](C)C[C@@]2(C)O)O[C@H](C)C[C@@H]1N(C)C [ERYTHROMYCIN ETHYLSUCCINATE] ?
34.4
